Sourced from patent US9616037B2

# experiment.notes: In vivo pharmacokinetics study, oral and intravenous dosing
# experimental.context: male, Sprague-Dawley, rat, plasma, po, 1 mg/kg
I'd appreciate it if you could supply half-life values for the items below.
Record the value in h, omitting the unit from your answer.

The compound identified as O=S(=O)(N[C@H]1CC[C@@H](CO)CC1)c1ccc(-c2ccc(F)cc2F)cc1 registered its half-life at 3.28

The compound identified as O=S(=O)(N[C@H]1CC[C@@H](CO)C1)c1ccc(-c2ccc(F)cc2F)cc1 registered its half-life at 3.17

###

# experiment.notes: Thermodynamic aqueous solubility in fasted state simulated intestinal fluid (FaSSIF)
# Type: physicochemical
# experimental.context: pH 6.5, thermodynamic from solid, equilibrated at 25° C. for 24 hours, HPLC
# Description: Initial screening of candidate compounds was performed using in vitro assays to determine potency, metabolic stability and solubility in biologically relevant fluids. Potency was assessed using a viability assay based on the survival of the J774 macrophage cell line. […] Metabolic stability was measured by determining the rate of disappearance of compound in the presence of human liver microsomal preparations, as quantified by LC-MS/MS. […]
value.type: log10 solubility at 24 h (log10 of the value in µg/mL)
Note the log scale: values are log10 of solubility at 24 h expressed in µg/mL.

The compound identified as CC(C)(O)[C@@H]1CC[C@H](NS(=O)(=O)c2ccc(-c3ccc(F)cc3F)cc2)C1 [ABD796] registered its log10 solubility at 24 h at 2.30

The compound identified as CC(C)(O)[C@H]1CC[C@H](NS(=O)(=O)c2ccc(-c3ccc(F)cc3F)cc2)CC1 [ABD794] registered its log10 solubility at 24 h at 1.08

The compound identified as O=S(=O)(N[C@H]1CC[C@H](CO)C1)c1ccc(-c2ccc(F)cc2F)cc1 [ABD813] registered its log10 solubility at 24 h at 2.52

The compound identified as O=S(=O)(NC1CCC(CO)CC1)c1ccc(-c2ccc(F)cc2F)cc1 (centres unmarked) [ABD776] registered its log10 solubility at 24 h at 1.91

The compound identified as CC(C)(O)[C@H]1CC[C@@H](NS(=O)(=O)c2ccc(-c3ccc(F)cc3F)cc2)CC1 [ABD795] registered its log10 solubility at 24 h at 1.70

The compound identified as CC(C)(O)[C@H]1CC[C@H](NS(=O)(=O)c2ccc(-c3ccc(F)cc3F)cc2)C1 [ABD815] registered its log10 solubility at 24 h at 2.40

The compound identified as O=S(=O)(N[C@H]1CC[C@H](O)CC1)c1ccc(-c2ccc(Cl)cc2F)cc1 [ABD655] registered its log10 solubility at 24 h at 1.48

The compound identified as O=S(=O)(N[C@H]1CC[C@@H](O)CC1)c1ccc(-c2ccc(F)cc2F)cc1 [ABD777] registered its log10 solubility at 24 h at 1.78

###

# experiment.notes: Thermodynamic aqueous solubility in fasted state simulated intestinal fluid (FaSSIF)
# Format: physicochemical
# experimental.context: pH 6.5, thermodynamic from solid, equilibrated at 25° C. for 24 hours, HPLC
value.type: solubility at 24 h (µg/mL)
Record the value in µg/mL, omitting the unit from your answer.

The compound identified as O=S(=O)(N[C@H]1CC[C@H](O)CC1)c1ccc(-c2ccc(F)cc2F)cc1 [ABD599] registered its solubility at 24 h at 30

The compound identified as O=S(=O)(N[C@@H]1CCC[C@@H]1CO)c1ccc(-c2ccc(F)cc2F)cc1 (relative stereo) [ABD769] registered its solubility at 24 h at 70

The compound identified as O=C1CCC(NS(=O)(=O)c2ccc(-c3ccc(F)cc3F)cc2)CC1 [ABD786] registered its solubility at 24 h at 32

The compound identified as CN(C)[C@H]1CC[C@@H](NS(=O)(=O)c2ccc(-c3ccc(F)cc3F)cc2)CC1 [ABD798] registered its solubility at 24 h at 4700

The compound identified as O=S(=O)(N[C@H]1CC[C@@H](CO)C1)c1ccc(-c2ccc(F)cc2F)cc1 [ABD773] registered its solubility at 24 h at 890

The compound identified as N[C@H]1CC[C@@H](NS(=O)(=O)c2ccc(-c3ccc(F)cc3F)cc2)CC1 [ABD812] registered its solubility at 24 h at 980

The compound identified as O=S(=O)(N[C@H]1CC[C@@H](CO)CC1)c1ccc(-c2ccc(F)cc2F)cc1 [ABD781] registered its solubility at 24 h at 590

The compound identified as CN(C)[C@H]1CC[C@H](NS(=O)(=O)c2ccc(-c3ccc(F)cc3F)cc2)CC1 [ABD799] registered its solubility at 24 h at 7200

The compound identified as NC1CCC(NS(=O)(=O)c2ccc(-c3ccc(F)cc3F)cc2)CC1 (stereo not drawn) [ABD787] registered its solubility at 24 h at 140

###

# experiment.notes: In vivo pharmacokinetics study, oral and intravenous dosing
# experimental.context: male, Sprague-Dawley, rat, plasma, iv, 1 mg/kg
value.type: half-life
I'd appreciate it if you included the unit after the number.

The compound identified as O=S(=O)(N[C@H]1CC[C@@H](CO)CC1)c1ccc(-c2ccc(F)cc2F)cc1 registered its half-life at 52.2 min

The compound identified as O=S(=O)(N[C@H]1CC[C@@H](CO)C1)c1ccc(-c2ccc(F)cc2F)cc1 registered its half-life at 48.6 min

###

# experiment.notes: In vivo pharmacokinetics study, oral and intravenous dosing
# experimental.context: male, Sprague-Dawley, rat, plasma, oral, 1 mg/kg
I'd appreciate it if you could supply bioavailability values for the items below.
Record the value in %, omitting the unit from your answer.

The compound identified as O=S(=O)(N[C@H]1CC[C@@H](CO)C1)c1ccc(-c2ccc(F)cc2F)cc1 registered its bioavailability at 13

The compound identified as O=S(=O)(N[C@H]1CC[C@@H](CO)CC1)c1ccc(-c2ccc(F)cc2F)cc1 registered its bioavailability at 43

###

# experiment.notes: Human liver microsomal stability assay
# Assay type: in vitro ADME
# experimental.context: both sexes, pH 7.4; pooled human liver microsomes 0.5 mg/mL, 3 μM compound, NADPH, 45 minute incubation
If the reported half-life at 3 µM equals or exceeds 50 min, assign criterion met. If not, assign criterion not met.

Kindly determine if half-life at 3 µM recorded for N[C@H]1CC[C@@H](NS(=O)(=O)c2ccc(-c3ccc(F)cc3F)cc2)CC1 is above or exactly 50 min.
criterion met

Kindly determine if half-life at 3 µM recorded for O=S(=O)(N[C@H]1CC[C@@H](O)CC1)c1ccc(-c2ccc(F)cc2F)cc1 is above or exactly 50 min.
criterion met

Kindly determine if half-life at 3 µM recorded for O=S(=O)(NC1CCC(CO)CC1)c1ccc(-c2ccc(F)cc2F)cc1 (stereo not shown) is above or exactly 50 min.
criterion met

Kindly determine if half-life at 3 µM recorded for O=S(=O)(N[C@H]1CC[C@H](O)CC1)c1ccc(-c2ccc(Cl)cc2F)cc1 is above or exactly 50 min.
criterion met

Kindly determine if half-life at 3 µM recorded for O=S(=O)(N[C@H]1CC[C@@H](CO)C1)c1ccc(-c2ccc(F)cc2F)cc1 is above or exactly 50 min.
criterion met

Kindly determine if half-life at 3 µM recorded for O=S(=O)(N[C@H]1CC[C@@H](CO)CC1)c1ccc(-c2ccc(F)cc2F)cc1 is above or exactly 50 min.
criterion not met

Kindly determine if half-life at 3 µM recorded for CC(C)(O)[C@H]1CC[C@@H](NS(=O)(=O)c2ccc(-c3ccc(F)cc3F)cc2)CC1 is above or exactly 50 min.
criterion not met

Kindly determine if half-life at 3 µM recorded for CC(C)(O)[C@@H]1CC[C@H](NS(=O)(=O)c2ccc(-c3ccc(F)cc3F)cc2)C1 is above or exactly 50 min.
criterion met

Kindly determine if half-life at 3 µM recorded for O=S(=O)(N[C@H]1CC[C@H](O)CC1)c1ccc(-c2ccc(F)cc2F)cc1 is above or exactly 50 min.
criterion met

Kindly determine if half-life at 3 µM recorded for O=C1CCC(NS(=O)(=O)c2ccc(-c3ccc(F)cc3F)cc2)CC1 is above or exactly 50 min.
criterion not met

Kindly determine if half-life at 3 µM recorded for O=S(=O)(N[C@@H]1CCC[C@@H]1CO)c1ccc(-c2ccc(F)cc2F)cc1 (relative stereo) is above or exactly 50 min.
criterion not met

Kindly determine if half-life at 3 µM recorded for CC(C)(O)[C@H]1CC[C@H](NS(=O)(=O)c2ccc(-c3ccc(F)cc3F)cc2)C1 is above or exactly 50 min.
criterion not met

Kindly determine if half-life at 3 µM recorded for O=S(=O)(N[C@H]1CC[C@H](CO)C1)c1ccc(-c2ccc(F)cc2F)cc1 is above or exactly 50 min.
criterion not met
